# test.protocol: method code SF, from DOI: 10.1021/jm4003632, PMID: 23662903
# condition.label: pH 7.4
outcome.measure: logD
Field format: numeric only.

What measured logD goes with `CC(C)n1ncnc1-c1nc2c(s1)CCOc1cc(-c3cnn(CCO)c3)ccc1-2` ?
3.9

---

# test.protocol: method code SF-HPLC, from DOI: 10.1039/p29890001935
Parameter logP: see the listing below.
Field format: numeric only.

INSERT INTO assay_data (compound, measured) VALUES
  ('Cc1ccccc1C1OCC2ON=C(c3ccccc3)C2CO1 (configuration not stated)', 2.72);

Turning to the following compound.
What measured logP goes with FC(F)(F)c1ccccc1C1OCC2ON=C(c3ccccc3)C2CO1 (configuration not stated) ?
4.31
